Data provenance: patent US20220024981A1

Quick reference: Maximum % inhibition of the listed items.
tested.target: T1, Human PCSK9 Alexa Fluor 647 (human, UniProt Q8NBP7 31-692, limits assumed, Alexa Fluor 647 label (site not stated))
T1 construct: Labelled tracer of the TR-FRET assay, 16 nM stock; also called proprotein convertase subtilisin/kexin type 9
T1 sequence (Q8NBP7 31-692 limits assumed): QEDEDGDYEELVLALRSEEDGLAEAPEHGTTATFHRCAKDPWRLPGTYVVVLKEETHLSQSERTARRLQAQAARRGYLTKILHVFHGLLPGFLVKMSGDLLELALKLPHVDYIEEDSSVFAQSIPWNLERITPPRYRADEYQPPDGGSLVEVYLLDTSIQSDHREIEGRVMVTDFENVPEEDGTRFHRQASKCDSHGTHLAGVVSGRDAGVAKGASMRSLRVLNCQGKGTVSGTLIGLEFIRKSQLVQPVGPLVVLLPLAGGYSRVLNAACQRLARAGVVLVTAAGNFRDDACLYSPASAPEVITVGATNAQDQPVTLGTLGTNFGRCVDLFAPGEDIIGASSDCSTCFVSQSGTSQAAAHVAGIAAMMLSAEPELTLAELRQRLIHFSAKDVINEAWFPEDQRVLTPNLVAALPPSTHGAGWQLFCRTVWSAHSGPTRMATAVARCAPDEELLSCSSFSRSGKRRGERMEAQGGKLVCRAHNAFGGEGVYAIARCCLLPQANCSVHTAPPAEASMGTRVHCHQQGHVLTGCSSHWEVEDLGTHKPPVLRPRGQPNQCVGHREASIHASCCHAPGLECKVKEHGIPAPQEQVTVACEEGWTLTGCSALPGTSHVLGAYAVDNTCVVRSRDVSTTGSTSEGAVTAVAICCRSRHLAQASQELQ
measurement.protocol: TR-FRET competition: PCSK9-Alexa Fluor 647 vs LDLR ECD-Eu kryptate
Bridge positions count the residues as written; N and C are the ends. Square brackets hold non-standard residues; d marks the D form. Phe(3,4-Cl2) = N[C@@H](Cc1ccc(Cl)c(Cl)c1)C(=O)O; Phe(4-CF3) = N[C@@H](Cc1ccc(C(F)(F)F)cc1)C(=O)O; Bip = N[C@@H](Cc1ccc(-c2ccccc2)cc1)C(=O)O; NMeF = CN[C@@H](Cc1ccccc1)C(=O)O; NMeA = CN[C@@H](C)C(=O)O
property: Maximum % inhibition (%)

| binder | unit.text | number |
| --- | --- | --- |
| {CH2CO}-FVDTTS[NMeF][Phe(4-CF3)][NMeA]ESPCG-NH2 (thioether N-13; SMILES CC(C)[C@@H]1NC(=O)[C@H](Cc2ccccc2)NC(=O)CSC[C@@H](C(=O)NCC(N)=O)NC(=O)[C@@H]2CCCN2C(=O)[C@H](CO)NC(=O)[C@H](CCC(=O)O)NC(=O)[C@H](C)N(C)C(=O)[C@H](Cc2ccc(C(F)(F)F)cc2)NC(=O)[C@H](Cc2ccccc2)N(C)C(=O)[C@H](CO)NC(=O)[C@H]([C@@H](C)O)NC(=O)[C@H]([C@@H](C)O)NC(=O)[C@H](CC(=O)O)NC1=O, also called 1-6; Ex. No. 1-6) [Ac*-F-V-D-T-T-S-(N-Me)F-(p-CF3)F-(N-Me)A-E-S-P-C*-G-NH2] | % | 97 |
| {CH2CO}-FVDTT[Bip][NMeA][Phe(3,4-Cl2)][NMeA]ESPCG-NH2 (thioether N-13; SMILES CC(C)[C@@H]1NC(=O)[C@H](Cc2ccccc2)NC(=O)CSC[C@@H](C(=O)NCC(N)=O)NC(=O)[C@@H]2CCCN2C(=O)[C@H](CO)NC(=O)[C@H](CCC(=O)O)NC(=O)[C@H](C)N(C)C(=O)[C@H](Cc2ccc(Cl)c(Cl)c2)NC(=O)[C@H](C)N(C)C(=O)[C@H](Cc2ccc(-c3ccccc3)cc2)NC(=O)[C@H]([C@@H](C)O)NC(=O)[C@H]([C@@H](C)O)NC(=O)[C@H](CC(=O)O)NC1=O, also called 1-26; Ex. No. 1-26) [Ac*-F-V-D-T-T-B-(N-Me)A-(3,4-diCl)F-(N-Me)A-E-S-P-C*-G-NH2] | % | 84 |
